Cited source: ChEMBL document CHEMBL3988442

Give Percent Effect for every item shown.
Molecular target: Shiga toxin 2 (Escherichia coli O157:H7) (UniProt P09385+P09386)
Assay: E. coli 0.157:H7 Shiga Toxin SOP - stx2 screening assay
Type: functional
Design: scale not given: direction of the effect not stated beside the values
Conditions: 30 µM
Your answer should be a plain number; it is taken to be in %.

Give Percent Effect for CCc1nc(C2CCCN(C(=O)CCn3ccccc3=O)C2)no1 (stereo not drawn)
7.71

Give Percent Effect for `O=C(CN1CCCS1(=O)=O)NCCOc1ccc2c(c1)CCC2`
9.97

Give Percent Effect for `COc1ccc(CN2C[C@@H](OCc3csc(C)n3)[C@H]3COC[C@H]32)cc1`
-12.3

Give Percent Effect for `COc1ccc(CS(=O)(=O)CC(=O)NCC2CC2)cc1F`
-12.5

Give Percent Effect for CCc1nnc(CNCC2CCN(CC(O)c3ccccc3)CC2)o1 (stereo not drawn)
-40.8

Give Percent Effect for CC(C)C1CN(C(=O)c2nccnc2N)CCS1 (stereo not drawn)
-15.2

Give Percent Effect for `Cc1nnc(N2C[C@@H](OCCCn3cccn3)[C@H]3OCCC[C@H]32)s1`
-13.8

Give Percent Effect for Cc1nc(C2CCCN(C(=O)c3sccc3C3CC3)C2)no1 (stereo not drawn)
0.602

Give Percent Effect for `COCCN1C[C@@H]2CN(Cc3ccsc3)CCC[C@]2(C(=O)O)C1`
-14.2

Give Percent Effect for `CN(Cc1cc2c(cc1OC(F)F)OCO2)Cc1nccn1C`
2.09

Give Percent Effect for Cn1cc(C2CCCN2C(=O)c2ccc(Br)o2)cn1 (stereo not drawn)
28.5

Give Percent Effect for `NC(=O)Cn1cc(NC(=O)N2CCCC2)cn1`
-31.6

Give Percent Effect for COc1ccc(C(=O)N2CCCCC2Cn2cccn2)c(F)c1 (stereo not drawn)
-7.04
